Consider the following compounds and their measured melting point readings.

// worked examples, melting point included
CC(I)CC(F)(F)C(F)(F)C(F)(F)C(F)(F)CC(C)I (stereo not drawn)
35 to 35.5 °C
N#Cc1cccc(CCC(=O)O)c1
95 °C
CCc1cccc(CC)c1NC(=O)NC1(c2ccccc2)CCC1
227 to 230 °C
Cc1cc(SC#N)c(C(C)C)cc1O
72 to 75 °C
O=C(Nc1ccc(-c2nc3ccccc3s2)cc1)c1ccccc1
227 to 228 °C
CN(Cc1cccc2c1C(=O)N(C1CCC(=O)NC1=O)C2=O)C(=O)Nc1ccccc1 (stereo not drawn)
226 to 228 °C

Note melting point for the compound shown: Cc1cc(-c2cccc(C(F)(F)F)c2)c2ncc(C(F)(F)F)nc2c1
93 to 94 °C

Specify reported melting point for the compound shown: CCCCc1nc2ccccc2n1Cc1ccc(-c2ccccc2C2SC(=O)NC2=O)cc1 (stereo not drawn)
162 to 163 °C

====

In this section we review reported melting point values for a set of compounds.

Here's what some known entries look like.
COC(=O)CS(=O)(=O)Nc1nc(-c2ncccc2C)cc2cccnc12
147 to 148 °C
Cc1ccc(NCCOS(C)(=O)=O)c([N+](=O)[O-])c1
65 to 67 °C
O=C(O)c1ccc(CNC(=O)C2Cc3ccccc3N2S(=O)(=O)c2ccc(-c3ccc(F)cc3F)cc2)cc1 (configuration not stated)
115 °C
COc1ccc(N2CCN(c3c(C)c(C)c4c(c3C)C(c3ccsc3)C(C)(C)O4)CC2)cc1 (configuration not stated)
128 to 131 °C
CC(=O)Nc1cc(I)ccc1C(=O)O
229 to 232 °C

Specify reported melting point for the compound shown: COc1ccccc1C1SCCCS1
127 to 128 °C

Report measured melting point; entry is O=C1CCC(Cc2ccc(Cl)cc2)N1 (configuration not stated)
95 to 98 °C

====

molecules and their reported melting point

Example entries begin here.
Cc1c2n(c3ccccc13)C(=O)C(Cc1cn(C)cn1)CC2 (stereo not drawn)
99 to 100 °C
COC(=O)COc1ccc2cc(CNC(=O)c3cc(-c4ccc(Cl)cc4)oc3C)ccc2c1
168 to 169 °C

State its melting point for this molecule: COc1ccc(CNc2nc(N)n3nc(-c4ccco4)nc3n2)cc1
238 to 239 °C

For the molecule O=C1NC(=O)C2(N1)C(=O)N(Cc1ccc(Br)cc1F)c1c(C(F)(F)F)cccc12 (stereo not drawn) , give its reported melting point.
197 to 199 °C

Determine its reported melting point: COc1cccc2c1CCC(C#N)C2O (stereo not drawn)
96 to 98 °C

Hello, please tell me recorded melting point for this one: Cc1cccc(O)c1S(N)(=O)=O
126 °C

====

This listing pairs compounds with measured melting point.

Some solved entries appear below for comparison.
O=C(O)Cc1cccc(OCCCN(Cc2cccc(F)c2F)CC(c2ccccc2)c2ccccc2)c1
148 °C
Cc1ccc(OCC2CN(C(C)C)C(=O)O2)cn1 (configuration not stated)
86 to 88 °C
OC1CSC(Oc2ccc(Cl)nc2)C(O)C1O (configuration not stated)
218 °C

Recall and state the measured melting point for Cn1cc(-c2cc(-c3cnc4[nH]ccc4c3)ccn2)n(-c2ccccc2)c1=O .
264 °C

Quick one: give measured melting point for CC(=O)c1c(O)c(=O)[nH]c2cc(Cl)ccc2c1=O
254 to 256 °C

Look up and state reported melting point for CC(=O)SCCc1ncn(C(c2ccccc2)(c2ccccc2)c2ccccc2)n1
135 to 140 °C

Look up melting point of COCCc1ccsc1S(N)(=O)=O and report it.
64 to 73 °C

Given Cc1nc(N2CCN(CCCc3ccccc3)C2=O)sc1C(=O)O , respond with its melting point.
218 to 221 °C

# return recorded melting point for input NNC1=NOCc2ccc(Cl)cc21
148 to 149 °C

Identify measured melting point corresponding to O=C(O)c1cccc(-c2nc3sccn3c2-c2ccnc(N[C@@H]3CCCN(S(=O)(=O)c4ccc(Cl)cc4)C3)n2)c1
190 to 195 °C

Entry Clc1cc2c(cc1Cl)Nc1ccccc1C(NCc1cccnc1)=N2 needs its melting point filled in; supply it.
209 to 210 °C

Write down melting point measured for item COC(=O)c1ccc(I)c(O)c1
153 °C

Answer with reported melting point of CNc1nnc(SCc2ccccn2)s1
73 to 75 °C

Retrieve melting point measured for O=C1NC(=O)c2c1c(-c1ccccc1Cl)cc1c2c2cc(O)ccc2n1CCCc1nnn[nH]1 and print it.
269 to 272 °C

Tell me its melting point given COc1cc(Br)c(Nc2nc(C)nc(-c3ccccc3C(F)(F)F)c2[N+](=O)[O-])c(OC)c1 as the entry.
147 to 148 °C

Find the measured melting point of O=C(O)Cn1c(=O)c2ccccc2n(CCCCN2CCC(OC(c3ccccc3)c3ccccc3)CC2)c1=O and report it.
184 to 186 °C

For the compound COc1c(C)c(C)c2c(c1C)C(C(=O)O)C(C)(C)O2 (configuration not stated) , give its reported melting point.
185 to 187 °C

====

ENDPOINT: melting point

CC(=O)SC(CC(=O)c1ccc(Cl)cc1)C(=O)O (configuration not stated)
68 to 69 °C
CCOC(=O)c1cn(-c2nc(NC(C)(C)C)c(F)cc2F)c2c(Cl)c(F)c(F)cc2c1=O
203 to 205 °C

Fill in melting point for record N#Cc1ccccc1Nc1cc2c(cc1Nc1ccccc1)C(=O)NC2=O
115 to 117 °C

Query melting point for CCOC(=O)C1(C(=O)OCC)CC(c2ccc(Cl)cc2N)=CN1C(C)=O
152 to 153 °C

Return value of melting point for input O=C(c1ccccc1CBr)c1ccccc1CBr , no commentary.
113 to 114 °C

Give the reported value of melting point for this record: CCCSc1c2ccccc2nc2c1c(C)nn2-c1ccccn1
91 to 93 °C

# return recorded melting point for entry O=C(CBr)NCCC(=O)ON1C(=O)CCC1=O
107 to 110 °C

====

# reported melting point; entries follow

The following compounds have reported results that may help.
NC(=O)Cc1ccc(OCC(O)CN2CCCC(Cn3c(=O)[nH]c4cc(Cl)c(Cl)cc43)C2)cc1 (stereo not drawn)
148 °C
Cc1ccc2c(c1)CN(C)C(c1ccc(C(C)(C)C)cc1)C2 (stereo not drawn)
106 to 108 °C

Continue with the compound presented below.
Input CNC(=O)ON=C(SCC(N)=O)C(C)(C)[N+](=O)[O-] , output reported melting point.
125 to 127 °C

====

As shown below, each of these compounds has a reported melting point value.

Worked examples, 2 compounds total:
CCN(CCO)CCCNc1ncc2cc(-c3c(Cl)cccc3Cl)c(N)nc2n1
201 to 204 °C
O=C(C=Cc1ccc(N2CCCC2)cc1)c1ccc2c(c1)CCC2
162 to 164 °C

API: the following record is the query input.
Answer with reported melting point of CCOC(=O)COc1cc(C2COc3c(C)c(C)c(NC(=O)CC(C)(C)C)c(C)c32)ccc1C(C)C (stereo not drawn)
149 to 150 °C

====

The following compounds are shown together with reported melting point values.

Past entries and their recorded results:
CCCCn1cnc2c(OC)nc(Nc3ccc(OCC)nc3)nc21
174 to 176 °C
CN(C)CCN1C(=O)N2[C@H](c3cccc(O)c3)c3[nH]c4ccc(Cl)cc4c3C[C@@]2(C)C1=O (racemic)
283 to 286 °C

Please report melting point for the following compound: CC(C)(C)OC(=O)NC(C(=O)Nc1n[nH]c(=S)s1)c1ccccc1 (stereo not drawn)
194 to 195 °C

State its melting point: N#Cc1cscc1Nc1ccc(Cl)cc1[N+](=O)[O-]
214 °C

Return value of melting point for input O=C(CNC(=O)c1ccc([N+](=O)[O-])c(I)c1)OCc1ccccc1 , no commentary.
98 to 100 °C

Answer with reported melting point of COc1cc2c(cc1N)N(C)C(=O)CN(CC#N)C2
128 to 132 °C

Output measured melting point for this item: CS(=O)(=O)c1ccc(-c2nc3cc(OC(=O)N4CCCCC4)ccc3s2)c(F)c1
173 to 178 °C

Recall and state the measured melting point for Cc1cc(C)c2c(c1C)OC(C)(C)C2 .
47 °C

In one line, give reported melting point of the entry CC(C)C[C@H](NC(=O)[C@H](Cc1ccccc1)NC(=O)OCc1ccccc1)C(=O)N[C@@H](C(C)C)[C@@H](O)c1c(-c2ccccc2)c1=O .
128 to 130 °C

Please report melting point for the following compound: [N-]=[N+]=NC1=C([C@H]2CC[C@H](c3ccc(Cl)cc3)CC2)C(=O)c2ccccc2C1=O
130 to 135 °C

====

ENDPOINT: melting point (°C)

(A) CCOc1c(C)cc([N+](=O)[O-])cc1C
(B) CNc1cc(Cl)cc(N)c1[N+](=O)[O-]
Response body: label of entry with the larger melting point; valid values A , B . Use the label to indicate which entry you chose.
B
(B: 129 °C, A: 56 °C)
